test: antimalarial activity against Dd2 strain (AID 2302); settings: P. falciparum Dd2 in RBCs, LDH growth readout, 72 h; at 2 µM
Activity calls are given as the source filed them.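 Rule for the calls: active = growth inhibition above 50% at the single 2 µM test dose, taken to imply half-maximal potency below 2 µM; inactive = the rest.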
Outcome codes: t for active, f for inactive

chemical-smiles	category
CCCc1cc(C(=O)N[C@@H](Cc2ccccc2)[C@H](O)CNC(C)C)c(F)c(N2CCCC2=O)c1	f
Cc1cc(N[C@@H](Cc2ccccc2)C(=O)NCc2cccs2)nc(NCCc2ccccn2)n1	f
CCCNc1nc(NCc2c(C)cccc2C)nc(NC(C)(C)C)n1	t
O=C(NCCN1CCCC1)c1cc(-c2ccc(Cl)c(O)c2)c(-c2ccncc2)o1	f
CC(=O)Nc1ccc(OCCCN(Cc2ccccc2OC(F)(F)F)c2ccc(C(F)(F)F)c(C#N)c2)c(Cl)c1	t
